read-out: Vascular cell adhesion molecule 1 (VCAM1), VCAM1 (gene 7412); assay: BSK_CASM3C_VCAM1: BioMAP Diversity Plus: CASM3C Assay for Vascular cell adhesion molecule 1 (VCAM1) Biomarker Activity (AID 2283055); conditions: primary human coronary artery smooth muscle cells; actives raise or lower the signal;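 also: VCAM-1 protein level quantified by ELISA on the cells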
Activity calls are given as the source filed them. The calls were made as follows: active = hit-call score of the fitted dose curve at least 0.9, where 1 is the maximum; inactive = score below 0.9.
Outcomes: yes (active), no (inactive)

[[record]]
sample_smiles = "NC(=O)C(F)(F)C(F)(F)C(F)(F)C(F)(F)F"
assigned_class = "no"

[[record]]
sample_smiles = "O=C(O)C(F)(F)C(F)(F)C(F)(F)C(F)(F)C(F)(F)C(F)(F)C(F)(F)C(F)(F)Cl"
assigned_class = "no"

[[record]]
sample_smiles = "C=C(C)C(=O)OCC(F)(F)C(F)(F)C(F)(F)C(F)(F)C(F)(F)C(F)(F)C(F)(F)F"
assigned_class = "no"

[[record]]
sample_smiles = "CC(=O)Nc1ccc(N=Nc2cc(C)ccc2O)cc1"
assigned_class = "yes"

[[record]]
sample_smiles = "O=S(=O)(OCC(F)F)C(F)(F)F"
assigned_class = "no"


* * *

Test: ACEA_ER_AUC_viability: ACEA Biosciences xCELLigence Real-Time Cell Analysis on Estrogen Receptor Agonism for Viability (AID 2283782);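 also: continuous compound exposure with impedance area under curve over 80 h; hit means loss of impedance signal meaning reduced cell growth or viability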
Method: ACEA_ER is a cell-based, single-readout assay that uses T47D, a human breast cell line, with measurements taken at 80 hours after chemical dosing in a 96-well plate, although TO2 (mc0.srcf) used a 384-well plate. Differences in plate size can be ignored given data normalization.ACEA_ER_AUC_viability is one of two assay component(s) measured or calculated from the ACEA_ER assay. […]
Results filed as inconclusive are left out. Calls of active or inactive are those of the source. How the source made its calls: active means hit-call score of the fitted dose curve at least 0.9, where 1 is the maximum; inconclusive means response in the unintended direction; inactive means score below 0.9.
observable: AC50

[[record]]
sample_smiles = "Nc1ccc(Oc2cccc(Oc3ccc(N)cc3)c2)cc1"
reading = "64.2 µM (active)"

[[record]]
sample_smiles = "COC(=O)CCC(F)(F)C(F)(F)C(F)(F)C(F)(F)F"
reading = "inactive"

[[record]]
sample_smiles = "C=C(C)C(=O)OCC(F)(F)C(F)(F)C(F)(F)C(F)(F)C(F)(F)C(F)(F)C(F)(F)F"
reading = "inactive"

